H69AR % Kill 72 h reference
- Tested on: H69AR cells
- experimental_protocol: Cytotoxicity in panel of MDR cell lines, H69AR (72 h and 144 h)
- Assay type: cell-based, human
- setup_conditions: 72 h incubation
Non-standard residues stand in square brackets, D forms with d. Residues, ends and D or L forms follow the SMILES beside them. *: point of attachment. Dolaproine = CO[C@@H]([C@@H]1CCCN1)[C@@H](C)C(=O)O; Dil = CC[C@H](C)[C@H](NC)[C@@H](CC(=O)O)OC; X1 = C[C@@H](N*)[C@@H](O)c1ccccc1; NMeV = CN[C@H](C(=O)O)C(C)C
measured_property: H69AR % Kill 72 h (%)

compound: C#CCCCCN(C(=O)[C@@H](NC(=O)[C@H]1CCCCN1C)[C@@H](C)CC)[C@H](C[C@@H](OC(C)=O)c1nc(C(=O)N[C@@H](Cc2ccc(F)cc2)CC(C)(C)C(=O)O)cs1)C(C)C
unit_label: %
reading: 96.6
//
compound: CCCCCCN(C(=O)[C@@H](NC(=O)[C@H]1CCCCN1C)[C@@H](C)CC)[C@H](C[C@@H](OC(C)=O)c1nc(C(=O)NC(Cc2ccc(N)c(O)c2)CC(C)(C)C(=O)O)cs1)C(C)C (some centres unmarked)
unit_label: %
reading: 48.7
//
compound: CCCCCCN(C(=O)[C@@H](NC(=O)[C@H]1CCCCN1C)[C@@H](C)CC)[C@H](C[C@@H](OC(C)=O)c1nc(C(=O)N[C@@H](Cc2ccc(N)c(F)c2)CC(C)(C)C(=O)O)cs1)C(C)C
unit_label: %
reading: 96.9
//
compound: CC[C@H](C)[C@@H]([C@@H](CC(=O)N1CCC[C@H]1[C@H](OC)[C@@H](C)C(=O)N[C@H](C)[C@@H](O)c1ccccc1)OC)N(C)C(=O)[C@@H](NC(=O)[C@@H](NC)C(C)C)C(C)C [MMAE, Monomethyl auristatin E, reference compound] (H-[NMeV]V[Dil][Dolaproine]-X1)
unit_label: %
reading: 66.8
//
compound: CCCCCCON(C(=O)[C@@H](NC(=O)[C@H]1CCCCN1C)[C@@H](C)CC)[C@H](C[C@@H](OC(=O)NC)c1nc(C(=O)N[C@@H](Cc2ccc(O)cc2)C[C@H](C)C(=O)O)cs1)C(C)C
unit_label: %
reading: 83.5
